- Test system: Trypanosoma cruzi
- protocol-summary: Trypanosoma cruzi phosphomannomutase and mannose-1-phosphate guanylyltransferase assay
- Format: functional
- Set-up: scale not given: direction of the effect not stated beside the values
- particulars: 10 µM
Each item that follows carries a reported Percent Effect.
endpoint: Percent Effect (%)

>>> df
                                    compound        endpoint  numeric_value
 0  CC(C#N)CSc1ccccc1NCC(=O)NCc1ccccc1 (stereo not drawn)  Percent Effect           5.49
 1  O=C1CCc2cc(C(=O)NCc3ccc(-n4cncn4)nc3)ccc2N1  Percent Effect          -5.19
 2  O=C(CN1CCOC(Cn2cccn2)C1)NCCc1ccc(F)cc1 (stereo not drawn)  Percent Effect          -3.25
 3  CCC(CC)c1cc(CNC(=O)N2CCCC(N(C)C)C2)on1 (stereo not drawn)  Percent Effect           6.55
 4  CCC1=N[C@@]2(CC[C@@H]3CN(CC(=O)N(C)C)C[C@@H]32)C(=O)N1CC1CC1  Percent Effect          -6.88
 5         Cc1nc(N2CCCCC2)ncc1-c1cc(O)[nH]n1  Percent Effect           1.18
 6  Cc1nn(CCO)c(C)c1CNC1CCC(C)(C)c2ccccc21 (stereo not drawn)  Percent Effect            7.3
 7       O=C(CCOc1ccccc1)N1CCC(Nc2cccnn2)CC1  Percent Effect           2.15
 8  COc1ccc(OC)c(NC(=O)c2nc3ccccc3n(C)c2=O)c1  Percent Effect          0.888
 9  COc1ccccc1C(O)CNC(=O)Nc1ncccc1C (stereo not drawn)  Percent Effect           6.52
10  CCc1nsc(NC2CCCn3nc(COC)nc32)n1 (stereo not drawn)  Percent Effect           4.77
11  COc1ccc(C2OC(COc3ccccc3Br)=NN2C(C)=O)cc1 (stereo not drawn)  Percent Effect          -5.23
12  O=C(c1ccc2c(c1)OCO2)N1CCC[C@]2(C[C@H](OCC3CC3)CO2)C1  Percent Effect          0.197
13    CN(Cc1ccco1)Cc1ccccc1CNC(=O)c1ccc[nH]1  Percent Effect           2.32
14      CC(C)NC(=O)N1CCc2ncc(CN3CCOCC3)n2CC1  Percent Effect           -4.2
15  CCc1noc(C(C)N2CCN(Cc3ncc(C(C)(C)C)o3)CC2)n1 (stereo not drawn)  Percent Effect          -3.38
16  CCN(CC1CCOC1)C(=O)c1cccnc1N1CCOCC1 (stereo not drawn)  Percent Effect           6.07
17              COCC(=O)NCCn1ccc2c(OC)cccc21  Percent Effect          0.393
18  COc1ccc(CN(C)[C@@H]2CN(C(=O)c3cccs3)C[C@H]2O)cc1  Percent Effect          -6.13
19  CN(C)C(=O)[C@H]1C[C@@H]2CN(S(=O)(=O)Cc3ccccc3)C[C@H]1O2  Percent Effect          -1.38
20  COCC(=O)NC1CC2(CCN(Cc3ccco3)CC2)c2ccccc21 (stereo not drawn)  Percent Effect          -7.92
21  Cc1nc(C2CCCN2C(=O)CNS(C)(=O)=O)no1 (stereo not drawn)  Percent Effect         -0.876
22  CN(C)CC1CN(CCOc2cccc(C#N)c2)CCO1 (stereo not drawn)  Percent Effect          -4.95
23  O=C1CC(NCc2ccncc2)CN1Cc1cccc(F)c1 (stereo not drawn)  Percent Effect           -2.9
24  O=C(NC1CCCC1)NC1CCC(C(=O)N2CCSCC2)CC1 (stereo not drawn)  Percent Effect          -5.61
25  Cn1ccnc1CN1CCC2(CC(=O)N(c3cccc(F)c3)C2)C1 (stereo not drawn)  Percent Effect           -7.2
26          Cc1cnn(CCNCc2ccccc2OCc2cccnc2)c1  Percent Effect          -1.95
27  Cc1nc(CN2CC3(CCN(c4ncc(F)cn4)C3)CC2=O)cs1 (stereo not drawn)  Percent Effect          -0.69
28             COCCN(C)Cc1ccc(OC)c(OC(F)F)c1  Percent Effect          -20.8
29   CCC(=O)N1CCC(c2nnc(Cn3cccn3)n2C2CC2)CC1  Percent Effect           2.23
30  O=C(NCC1CCOC1)c1csc(-c2ccco2)n1 (stereo not drawn)  Percent Effect           5.24
31  COc1ccc(CNC(=O)N(Cc2ccc(F)cc2F)C2CC2)cn1  Percent Effect           5.95
32  CC(NC(=O)CCOc1ccccc1Cl)c1nnc2n1CCC2 (stereo not drawn)  Percent Effect           6.51
33            Cc1noc(NC(=O)c2ccc(C)c(F)c2)n1  Percent Effect           4.63
34  CCc1nc2n(n1)CC(NCc1noc(-c3ccccc3)n1)CC2 (stereo not drawn)  Percent Effect           9.06
35  Cc1ccc(NC2CCN(C(=O)Cc3ccc(C#N)cc3)CC2)nn1  Percent Effect           4.81
36  CN(c1ccc(F)c(F)c1)S(=O)(=O)c1cc(C(=O)O)cs1  Percent Effect          -6.32
37    CCc1nnc2n1CCN(Cc1csc(-c3cnn(C)c3)n1)C2  Percent Effect          -3.79
38  CC(C(=O)Nc1ccc(N2CCCC2)nc1)n1cncn1 (stereo not drawn)  Percent Effect           4.62
39  Clc1ccc(CN2CCCC(Cn3cncn3)C2)c2ncccc12 (stereo not drawn)  Percent Effect          0.688
40  CSC(C)C(=O)NCCCc1cc(N)n(-c2ccccc2)n1 (stereo not drawn)  Percent Effect          -2.15
41  CC(C)c1noc(C(C)N2CCN(Cc3ccco3)CC2)n1 (stereo not drawn)  Percent Effect           7.19
42  CN1Cc2c(C(=O)Nc3cccnc3)ncn2-c2ccccc2S1(=O)=O  Percent Effect              0
43  CCc1n[nH]c(C2CN(C(=O)c3cnns3)CCO2)n1 (stereo not drawn)  Percent Effect          -4.63
44  Cc1noc(CN2Cc3ccccc3CC2c2nnc(C)o2)n1 (stereo not drawn)  Percent Effect           3.23
45  O=C(c1cccnc1)N1CC[C@H](OCC2CC2)[C@@H]1Cc1cccnc1  Percent Effect          -4.44
46  O=C(CCN1CCCC1C1CCCCC1)N1CCc2sccc2C1 (stereo not drawn)  Percent Effect           5.75
47  O=C(O)CC1CN(Cc2ccccc2)CCO1 (stereo not drawn)  Percent Effect          -5.27
